target: DCAF15/RBM39 (Homo sapiens, UniProt Q14498+Q66K64); assay: AlphaLISA compound-induced DCAF15-RBM39 ternary complex formation; details: His-tagged DCAF15 complex and biotin-carrying RBM39
readout-label: EC50

Use the examples below as a reference point.
CN(C)C(=O)C[C@H](NC(=O)c1ccc(S(=O)(=O)Nc2ccc(Cl)c3c(Cl)c[nH]c23)c(F)c1)c1ccccc1; < 1000 nM
Cc1cnc(CNC(=O)c2cccc(S(=O)(=O)Nc3ccc(Cl)c4c(Cl)c[nH]c34)c2F)cn1; < 1000 nM
COCCOCCCNC(=O)c1cccc(S(=O)(=O)Nc2ccc(Cl)c3c(Cl)c[nH]c23)c1F; < 1000 nM
O=C(NCCc1ccccn1)c1cccc(S(=O)(=O)Nc2ccc(Cl)c3c(Cl)c[nH]c23)c1F; < 1000 nM
O=S(=O)(Nc1ccc(Cl)c2c(Cl)c[nH]c12)c1ccc(OCCCc2ccc3c(c2)OCO3)cc1; > 100000 nM

Proceed to the following item.
Under DCAF15/RBM39 (Homo sapiens, UniProt Q14498+Q66K64): report EC50 of `CC1(Oc2ccc(S(=O)(=O)Nc3ccc(Cl)c4c(Cl)c[nH]c34)cc2)CCNCC1` .
< 1000 nM

----------
target: DCAF15 (Homo sapiens, UniProt Q66K64); assay: HTRF competition assay, binary interaction between compounds and DCAF15; conditions: competition with Alexa Fluor 647 tracer, His-tagged DCAF15 complex
readout-label: IC50

Worked set:
O=C(NCCCC(=O)N1CCCC1)c1ccc(S(=O)(=O)Nc2ccc(Cl)c3c(Cl)c[nH]c23)c(F)c1; < 1000 nM
O=C(c1cccc(S(=O)(=O)Nc2ccc(Cl)c3c(Cl)c[nH]c23)c1F)N1CCc2[nH]c(-c3ccccc3)nc2C1; 1000 to 10000 nM
O=C(NCCOC1CCS(=O)(=O)CC1)c1ccc(S(=O)(=O)Nc2ccc(Cl)c3c(Cl)c[nH]c23)c(F)c1; < 1000 nM
Cc1nc2c(n1C)CCN(C(=O)c1ccc(S(=O)(=O)Nc3ccc(Cl)c4c(Cl)c[nH]c34)c(F)c1)C2; < 1000 nM
CN1C[C@@H](NC(=O)c2ccc(S(=O)(=O)Nc3ccc(Cl)c4c(Cl)c[nH]c34)c(F)c2)CCC1=O; < 1000 nM
O=C(NCCOC1CCS(=O)(=O)CC1)c1cccc(S(=O)(=O)Nc2ccc(Cl)c3c(Cl)c[nH]c23)c1F; 1000 to 10000 nM
O=S(=O)(Nc1ccc(Cl)c2c(Cl)c[nH]c12)c1ccc(OCCCC2CCNCC2)cc1; 1000 to 10000 nM
O=S(=O)(Nc1ccc(Cl)c2c(Cl)c[nH]c12)c1cccc(OCCCc2ccc3c(c2)OCO3)c1; > 100000 nM
O=C(NCC1CCN(CCCc2ccccc2)CC1)c1cccc(S(=O)(=O)Nc2ccc(Cl)c3c(Cl)c[nH]c23)c1F; 1000 to 10000 nM
CNCCCCCOc1ccc(S(=O)(=O)Nc2ccc(Cl)c3c(Cl)c[nH]c23)cc1; 1000 to 10000 nM

Identify the reported IC50 for the following entry. `Cn1ncnc1COc1ccc(S(=O)(=O)Nc2ccc(Cl)c3c(Cl)c[nH]c23)cc1`
1000 to 10000 nM

Name the recorded IC50 of the molecule listed here: `O=C(NCCCc1ccc(Cl)cc1)c1cccc(S(=O)(=O)Nc2ccc(Cl)c3c(Cl)c[nH]c23)c1F`
> 100000 nM

----------
molecular target: DCAF15 (Homo sapiens); test: HTRF competition assay, binary interaction between compounds and DCAF15; assay type: binding; conditions: competition with Alexa Fluor 647 tracer, His-tagged DCAF15 complex
Quick list: IC50 per entry.

Use the examples below as a reference point.
CC1(Oc2ccc(S(=O)(=O)Nc3ccc(Cl)c4c(Cl)c[nH]c34)cc2)CCN(CCO)CC1; 1 to 10 µM
O=S(=O)(Nc1ccc(Cl)c2c(Cl)c[nH]c12)c1ccc(OC[C@H]2[C@@H]3CNC[C@@H]32)cc1; 10 to 100 µM
NCCc1ccc(COc2ccc(S(=O)(=O)Nc3ccc(Cl)c4c(Cl)c[nH]c34)cc2)cc1; 1 to 10 µM
CNCCCCCCOc1ccc(S(=O)(=O)Nc2ccc(Cl)c3c(Cl)c[nH]c23)cc1; 1 to 10 µM

Provide measured IC50 value, entry: `CC(C)(C)OC(=O)N1CCC2(CC1)CN(C(=O)c1cccc(S(=O)(=O)Nc3ccc(Cl)c4c(Cl)c[nH]c34)c1F)CCO2`
1 to 10 µM

Specify IC50 for `O=C(OCc1ccccc1)N1C[C@@H]2[C@@H](COc3cccc(S(=O)(=O)Nc4ccc(Cl)c5c(Cl)c[nH]c45)c3)[C@@H]2C1` and stop.
> 100 µM

Return IC50 (reported value) for this compound: `N[C@@H]1CCC[C@@H](Oc2ccc(S(=O)(=O)Nc3ccc(Cl)c4c(Cl)c[nH]c34)cc2)C1`
1 to 10 µM

Give IC50 for `CN1CCN(CCCOc2cccc(S(=O)(=O)Nc3ccc(Cl)c4c(Cl)c[nH]c34)c2)CC1`
10 to 100 µM

Return the recorded IC50 value; entry: `CN1CC[C@@H](c2ccc(F)cc2)[C@H](COc2cccc(S(=O)(=O)Nc3ccc(Cl)c4c(Cl)c[nH]c34)c2)C1`
1 to 10 µM

Respond only with IC50 recorded for `O=c1oc2ccccc2n1CCCOc1cccc(S(=O)(=O)Nc2ccc(Cl)c3c(Cl)c[nH]c23)c1`
> 100 µM

----------
biological target: DCAF15/RBM39 (Homo sapiens, UniProt Q14498+Q66K64); assay: AlphaLISA compound-induced DCAF15-RBM39 ternary complex formation; conditions: His-tagged DCAF15 complex and biotin-carrying RBM39
Reported EC50 is given for each of the following compounds.

O=S(=O)(Nc1ccc(Cl)c2c(Cl)c[nH]c12)c1ccc(OCC2COC2)cc1 [Compound 40]; < 1000 nM

Determine from records and report EC50 for O=C(NCC1CCN(CCCc2ccccc2)CC1)c1cccc(S(=O)(=O)Nc2ccc(Cl)c3c(Cl)c[nH]c23)c1F [Compound 166]
< 1000 nM

For N[C@@H]1CCC[C@@H](Oc2cccc(S(=O)(=O)Nc3ccc(Cl)c4c(Cl)c[nH]c34)c2)C1 [Compound 6] , write its EC50.
< 1000 nM

Identify EC50 associated with the compound CC(C)C(=O)Nc1cccc(CNC(=O)c2cccc(S(=O)(=O)Nc3ccc(Cl)c4c(Cl)c[nH]c34)c2F)c1 [Compound 168]
1000 to 10000 nM

Supply measured EC50 of Cc1ccccc1Oc1ccccc1CNC(=O)c1ccc(S(=O)(=O)Nc2ccc(Cl)c3c(Cl)c[nH]c23)c(F)c1 [Compound 173] in your reply.
> 100000 nM

----------
Target: DCAF15/RBM39 (Homo sapiens, UniProt Q14498+Q66K64)
Test: AlphaLISA compound-induced DCAF15-RBM39 ternary complex formation
Format: binding
Details: His-tagged DCAF15 complex and biotin-carrying RBM39
Protocol: Example 6: Quantitative Evaluation of Compound-Induced Ternary Complex Formation Using Amplified Luminescent Proximity Homogeneous Assay Compound-induced DCAF15-RBM39 ternary complex formation was monitored using AlphaLISA® assays (Perkin Elmer, Waltham, MA). […] Signals were recorded using EnVision 2104 Multilabel Plate Reader (Perkin Elmer, Waltham, MA) and titration curves were generated in GraphPad Prism (7.00, GraphPad, La Jolla, CA).
pEC50: −log10 of the molar value.
Some compounds, each annotated with its measured pEC50.

Guide cases for pEC50, answers given:
O=C(N[C@@H]1CCC[C@@H](Oc2ccc(S(=O)(=O)Nc3ccc(Cl)c4c(Cl)c[nH]c34)cc2)C1)OCc1ccccc1 [Compound 13]; < 4.00
CCc1nc(CN(C)C(=O)c2ccc(S(=O)(=O)Nc3ccc(Cl)c4c(Cl)c[nH]c34)c(F)c2)no1 [Compound 177]; > 6.00

Indicate its recorded pEC50; the compound in question is CC(C)C[C@H](NC(=O)c1ccc(S(=O)(=O)Nc2ccc(Cl)c3c(Cl)c[nH]c23)c(F)c1)c1nc2ccccc2[nH]1 [Compound 212]
5.00 to 6.00

----------
target: DCAF15/RBM39 (Homo sapiens, UniProt Q14498+Q66K64); experiment: AlphaLISA compound-induced DCAF15-RBM39 ternary complex formation; conditions: His-tagged DCAF15 complex and biotin-carrying RBM39
pEC50: −log10 of the molar value.
Entries and their measured pEC50 follow.

See these solved cases before continuing.
O=c1oc2ccccc2n1CCCOc1cccc(S(=O)(=O)Nc2ccc(Cl)c3c(Cl)c[nH]c23)c1 [Compound 112]; 5.00 to 6.00
Cc1cc(CNC(=O)c2ccc(S(=O)(=O)Nc3ccc(Cl)c4c(Cl)c[nH]c34)c(F)c2)nn1C [Compound 175]; > 6.00
CN(C)C(=O)c1cccc(S(=O)(=O)Nc2ccc(Cl)c3c(Cl)c[nH]c23)c1 [Compound 238]; 5.00 to 6.00

Shifting focus to the compound that follows.
State its pEC50 for this compound: O=C(OCc1ccccc1)N1C[C@@H]2[C@@H](COc3cccc(S(=O)(=O)Nc4ccc(Cl)c5c(Cl)c[nH]c45)c3)[C@@H]2C1 [Compound 49]
5.00 to 6.00
